# assay_details: reversal of MRP1-mediated doxorubicin resistance, pilot screen, H69AR cells, doxorubicin co-treatment (AID 601)
# measurement_parameters: H69AR cells, CellTiter-Glo, 72 h; compound alone cytotoxicity; at 10 µM
assay_endpoint: viability (%)
Reply numerically in %, unit not repeated.

compound | viability [%]
O=C(CCCn1c(=O)c2sccc2n(CC(=O)NCc2ccco2)c1=O)NCc1ccco1 | 100

Fill blank: measured viability of the compound C=CCSc1nc2c(c(=O)[nH]c(=O)n2C)n1CC is ____. 93.2

Fill blank: measured viability of the compound Cc1nc(SC2C=CS(=O)(=O)C2)n[nH]1 (stereo unspecified) is ____. 86.3

Fill blank: measured viability of the compound CCOC(=O)C1CCN(C(=O)c2c(-c3c(Cl)cccc3Cl)noc2C)CC1 is ____. 84.8

Fill blank: measured viability of the compound O=P1(O)C=C(c2ccccc2)NC(c2ccccc2)=C1 is ____. 91.7

Fill blank: measured viability of the compound O=C(CSc1nc2ccccc2c(=O)n1Cc1ccco1)NCc1ccccc1 is ____. 89.4

Fill blank: measured viability of the compound CC1=C(C#N)C(c2ccc3ncccc3c2)C(C#N)=C(C)N1 is ____. 97

* * *

# assay_details: reversal of MRP1-mediated doxorubicin resistance, pilot screen, H69AR cells, doxorubicin co-treatment (AID 601)
# measurement_parameters: H69AR cells + 2 uM doxorubicin, CellTiter-Glo, 72 h; at 10 µM; stronger effect = higher value
assay_endpoint: differential viability (reversal) (%)
Reply numerically in %, unit not repeated.

Examples with their reported differential viability (reversal) follow.
compound | assay_endpoint | numeric_value
N#CC(C(=O)Nc1ccc(Cl)c(Cl)c1)=C1Nc2ccccc2N1 | differential viability (reversal) | -10.8
O=C(Cc1nc2ccccc2s1)c1ccc(O)cc1O | differential viability (reversal) | 4.72
O=C(CSc1nc(-c2ccco2)cc(C(F)(F)F)n1)N1CCCc2ccccc21 | differential viability (reversal) | 2.16
O=[N+]([O-])c1cccc2cn[nH]c12 | differential viability (reversal) | 9.56
Cc1cccc(N(CC(=O)Nc2ccc(CC#N)cc2)S(C)(=O)=O)c1 | differential viability (reversal) | 10.8
CN(C)CC(O)COc1ccc(-c2ccc(C#N)cc2)cc1 (configuration not stated) | differential viability (reversal) | 14.3

Fill blank: measured differential viability (reversal) of the compound Cc1noc(NS(=O)(=O)c2ccc(N)cc2)c1C is ____. 15.7

Fill blank: measured differential viability (reversal) of the compound COC(=O)C1=C(CSCc2ccco2)NC(=O)NC1c1cc(C)ccc1C (configuration not stated) is ____. -9.46

Fill blank: measured differential viability (reversal) of the compound COc1ccccc1CC(=O)NCC1CCCO1 (configuration not stated) is ____. 8.34

Fill blank: measured differential viability (reversal) of the compound CCOC(=O)c1cc2c(=O)n3cccc(C)c3nc2n(CC2CCCO2)c1=NC(C)=O (configuration not stated) is ____. 61.6

Fill blank: measured differential viability (reversal) of the compound CC1=NS(=O)(=O)c2cc(Cl)ccc2N1 is ____. 7.28

Fill blank: measured differential viability (reversal) of the compound Nc1nc(-c2ccc(Cl)cc2)nn1C(=O)c1cccnc1 is ____. 0.94

* * *

# assay_details: growth suppression of yeast trafficking mutant, preliminary HTS, modulators of trafficking downstream of Golgi apparatus project, 1536-format plate, OD 615 nm (AID 637)
# measurement_parameters: yeast transport mutant growth, absorbance 615 nm, 18 h
The source made the active and inactive calls. Cut-off read from the data, not from the text of the source: active = inhibition above about 30%; inactive = the rest.
Write down the outcome that applies. Available outcomes: active, inactive

compound | label_value
Cc1ccc(CNC(=O)CCCn2c(=O)c3ccccc3n(CC(=O)NCc3ccco3)c2=O)cc1 | inactive
CCc1oc2ccccc2c1C(=O)c1cc(Br)c(O)c(Br)c1 | active
CCN(C(=O)CN1CCN(c2ccccc2OC)CC1)c1c(N)n(Cc2ccccc2)c(=O)[nH]c1=O | inactive
CCN1CCN(CCNC(=O)c2cn(C(C)c3ccccc3F)nn2)CC1 (stereo unspecified) | inactive
CCOc1nc(OCC)nc(N2CCC(C)CC2)n1 | active
C=CCNC(=O)C1CC(=O)N(c2ccc(OCC(=O)Nc3ccc(OC)cc3)cc2)C1 (stereo unspecified) | inactive

Could you kindly confirm the outcome this assay logged for CCSc1nnc(-c2ccc(OC)cc2)o1 ? inactive

Could you kindly confirm the outcome this assay logged for COc1ccc(C/C(O)=C(\C#N)c2nc3ccccc3s2)cc1 ? inactive

Could you kindly confirm the outcome this assay logged for CCOC(=O)c1ccccc1NC1CC(=O)N(c2ccccc2C)C1=O (stereo unspecified) ? inactive

Could you kindly confirm the outcome this assay logged for CC(C)(C)c1ccc(C(=O)N2CCC(C(=O)NCc3ccncc3)CC2)cc1 ? inactive

Could you kindly confirm the outcome this assay logged for CCNC(=O)C1CC(=O)N(Cc2ccc3c(c2)OCO3)C(=Nc2ccc(OCC)cc2)S1 (stereo unspecified) ? inactive

* * *

# assay_details: growth inhibitors of H69AR lung tumor, primary screen, human, duplicate replicates (AID 580);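 also: 100% = mean luminescence of untreated wells and 0% = no signal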
# measurement_parameters: H69AR lung tumor cells viability, ATP luminescence, 72 h; at 10 µM; stronger effect = lower value
Calls of active or inactive are those of the source.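 The calls were made as follows: active = viability at or under a set limit in both replicates, limit being median viability minus 3 SD (cut at about 48% in these data, passing the limit was not always enough); inconclusive = at or under the limit in just one replicate; inactive = at or above the limit in both replicates.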
assay_endpoint: viability

compound | result
CCCOc1cccc(C(=O)N(Cc2ccco2)C2CCS(=O)(=O)C2)c1 (stereo unspecified) | 90.5% (inactive)
CN(c1cccc(NC(=O)COc2ccccc2)c1)S(C)(=O)=O | 96% (inactive)
Cc1ccc(CCNC(=O)C2CCCN2S(=O)(=O)c2ccc3c(c2)CCC(=O)N3)cc1 (stereo unspecified) | 101% (inactive)
O=C(c1ccco1)N1CCN(CC(=O)N(C2CCCCC2)C2CCS(=O)(=O)C2)CC1 (stereo unspecified) | 93.5% (inactive)
C/C(=N\O)c1ccc2c3c([nH]c2c1)CCCC3 | 88.1% (inactive)
O=C1c2ccccc2C(=O)N1CCN1CCCCC1 | 103% (inactive)
COC(=O)CSc1nc2sc3c(c2c(=O)n1C1CCCCC1)CCN(C)C3 | 95% (inactive)
c1ccc2c(c1)CCCC2C1=NCCN1 (stereo unspecified) | 95.3% (inactive)
C=CCN1C(=O)CS/C1=N/c1nccs1 | 98.4% (inactive)
COc1cccc(NC(=O)N(Cc2ccco2)C(C)c2cccs2)c1 (stereo unspecified) | 89.8% (inactive)

Kindly review the next compound as well.
Fill blank: measured viability of the compound COc1ccccc1C(=O)Nc1nc2ccc(S(C)(=O)=O)cc2s1 is ____. 79.5% (inactive)

* * *

# assay_details: reversal of MRP1-mediated doxorubicin resistance, pilot screen, H69AR cells, doxorubicin co-treatment (AID 601)
# measurement_parameters: H69AR cells + 2 uM doxorubicin, CellTiter-Glo, 72 h; at 10 µM; stronger effect = higher value
assay_endpoint: differential viability (reversal) (%)
Reply numerically in %, unit not repeated.

compound | units_label | numeric_value
CCCC1O[C@@H]2C[C@H]3[C@@H]4CCC5=CC(=O)C=C[C@]5(C)[C@H]4[C@@H](O)C[C@]3(C)[C@]2(C(=O)CO)O1 (stereo not given in full) | % | 0.52

Fill blank: measured differential viability (reversal) of the compound CC1CCCC(C)N1C(=O)CSc1nnc(-c2cccs2)o1 (stereo not given) is ____. -1.69

Fill blank: measured differential viability (reversal) of the compound CN(C)CCC=C1c2ccccc2CCc2ccccc21 is ____. 8.06

Fill blank: measured differential viability (reversal) of the compound CCN(C(=O)c1ccnc(C(C)(C)C)c1)c1ccccc1 is ____. -4.02

Fill blank: measured differential viability (reversal) of the compound CCC(=O)N/C(N)=N/c1nc(C)c2cc(OC)ccc2n1 is ____. -8.64

Fill blank: measured differential viability (reversal) of the compound CC(C)CNC(=O)c1ccccc1NC(=O)CN(c1ccc2c(c1)OCCO2)S(C)(=O)=O is ____. 1.55

Fill blank: measured differential viability (reversal) of the compound CO[C@H]1C[C@@H]2CC[C@@H](C)[C@@](O)(O2)C(=O)C(=O)N2CCCC[C@H]2C(=O)O[C@H]([C@H](C)C[C@@H]2CC[C@@H](O)[C@H](OC)C2)CC(=O)[C@H](C)C=C(C)[C@@H](O)[C@@H](OC)C(=O)[C@H](C)C[C@H](C)C=CC=CC=C1C is ____. 1.46

Fill blank: measured differential viability (reversal) of the compound CC(=O)O[C@]1(C(C)=O)CC[C@H]2[C@@H]3C[C@H](C)C4=CC(=O)CC[C@]4(C)[C@H]3CC[C@@]21C is ____. -5.03

Fill blank: measured differential viability (reversal) of the compound Cn1c(=O)[nH]c(=O)c2c1nc(Br)n2Cc1ccccc1F is ____. 16.6

Fill blank: measured differential viability (reversal) of the compound O=C(C1CC2CCC1C2)N1CCN(Cc2ccc3c(c2)OCO3)CC1 (stereo not given) is ____. 13.9

Fill blank: measured differential viability (reversal) of the compound COc1ccccc1OC(=O)c1ccc(SC)cc1OC is ____. 2.65
